Please go through the items and note down their IC50.
Tested on: B16-F10 melanoma cells
test: cells
run_parameters: Mus musculus, B16-F10, 72 h, read-out: Cytotoxicity IC50
One number for each entry, in µg/mL.

Reference set, count: 2
• COC1C(N)C(OC2C(Oc3cccc4c(O)c5c(=O)oc6ccc(C)c7c(=O)oc(c34)c5c67)OC(C)C(O)C2(C)O)OC(C)C1O (stereo not drawn) = 0.03
• COC1C(N)C(OC2C(Oc3cccc4c(O)c5c(=O)oc6ccc(C)c7c(=O)oc(c34)c5c67)OC(C)C3OC(c4ccccc4)OC32C)OC(C)C1O (stereo not drawn) = 0.07

Lookup: Suppose we examine the molecule COC1OC2C(C)OC(Oc3cccc4c(O)c5c(=O)oc6ccc(C)c7c(=O)oc(c34)c5c67)C(OC3OC(C)C(O)C(OC)C3N)C2(C)O1 (stereo not drawn) ; what IC50 value has been reported?
Found: 0.05
